Target: PXR (NR1I2) (Homo sapiens)
Sequence (O75469 whole entry): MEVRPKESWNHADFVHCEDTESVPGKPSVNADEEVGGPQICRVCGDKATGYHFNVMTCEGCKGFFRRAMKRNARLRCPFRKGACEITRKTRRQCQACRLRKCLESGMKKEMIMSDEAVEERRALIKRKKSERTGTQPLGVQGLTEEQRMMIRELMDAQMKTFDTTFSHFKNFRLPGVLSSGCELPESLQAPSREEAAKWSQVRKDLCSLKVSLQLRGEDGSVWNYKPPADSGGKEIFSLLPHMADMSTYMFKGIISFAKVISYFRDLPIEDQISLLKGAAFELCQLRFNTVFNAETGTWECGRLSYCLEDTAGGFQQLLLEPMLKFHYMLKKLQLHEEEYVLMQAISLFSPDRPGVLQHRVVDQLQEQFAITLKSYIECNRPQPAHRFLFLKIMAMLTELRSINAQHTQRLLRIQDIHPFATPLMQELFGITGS
Assay: NVS_NR_hPXR: Human PXR Fluormone PXR (SXR) green (cell-free HTS)
Format: binding
Conditions: scale not given, looks like -log10 of molar active concentration, 0 = no activity
observed property: NVS_NR_hPXR
Please respond with just the number, no unit label.

Item: `COc1cc(Cl)c(OC)cc1Cl` | NVS_NR_hPXR: 0

Item: `N#Cc1cc(Br)c(O)c(Br)c1` | NVS_NR_hPXR: 0

Item: `CNC(=O)Oc1cccc2ccccc12` | NVS_NR_hPXR: 0

Item: `OB(O)O` | NVS_NR_hPXR: 0

Item: `CCCCOCN(C(=O)CCl)c1c(CC)cccc1CC` | NVS_NR_hPXR: 6.022

Item: CCOC(=O)C(Cl)Cc1cc(-n2nc(C)n(C(F)F)c2=O)c(F)cc1Cl (stereo not shown) | NVS_NR_hPXR: 0

Item: `Nc1cnn(-c2ccccc2)c(=O)c1Cl` | NVS_NR_hPXR: 0

Item: CCC(C)Nc1c([N+](=O)[O-])cc(C(C)(C)C)cc1[N+](=O)[O-] (stereo not shown) | NVS_NR_hPXR: 0

Item: `CCSC(=O)N(CC(C)C)CC(C)C` | NVS_NR_hPXR: 4.412

Item: O=C1C2CC=CCC2C(=O)N1SC(Cl)(Cl)Cl (stereo not shown) | NVS_NR_hPXR: 5.329

Item: `CC(C)(c1ccc(O)cc1)c1ccc(O)cc1` | NVS_NR_hPXR: 0

Item: `COC(=O)c1ccccc1CS(=O)(=O)NC(=O)Nc1nc(OC)cc(OC)n1` | NVS_NR_hPXR: 0

Item: `CC1=C(C(=O)Nc2ccccc2)SCCO1` | NVS_NR_hPXR: 0

Item: `Cc1ccccc1CO[C@@H]1C[C@@]2(C(C)C)CC[C@]1(C)O2` | NVS_NR_hPXR: 0

Item: `O=C(Nc1ccccc1-c1ccc(Cl)cc1)c1cccnc1Cl` | NVS_NR_hPXR: 0

Item: COc1nc(C)nc(NC(=O)NS(=O)(=O)c2ccccc2Cl)n1 [r62] | NVS_NR_hPXR: 0

Item: `CC(C)N1C(=O)c2ccccc2NS1(=O)=O` | NVS_NR_hPXR: 0

Item: `C=CCOC(=O)C(C)(C)OC(=O)c1cc(-n2c(=O)cc(C(F)(F)F)n(C)c2=O)ccc1Cl` | NVS_NR_hPXR: 0

Item: `COc1ccc(-c2ccccc2)cc1NNC(=O)OC(C)C` | NVS_NR_hPXR: 0

Item: `CC(C)N1C(=O)N(c2ccccc2)CS/C1=N\C(C)(C)C` | NVS_NR_hPXR: 5.263

Item: CCC(C)n1c(=O)[nH]c(C)c(Br)c1=O (stereo not shown) | NVS_NR_hPXR: 0

Item: `CC(C)OC(=O)Nc1cccc(Cl)c1` | NVS_NR_hPXR: 0

Item: Cc1c(COC(=O)C2C(/C=C(\Cl)C(F)(F)F)C2(C)C)cccc1-c1ccccc1 (stereo not shown) | NVS_NR_hPXR: 0

Item: `N#Cc1c(Cl)c(Cl)c(Cl)c(C#N)c1Cl` | NVS_NR_hPXR: 0

Item: COc1nc(C)nc(NC(=O)NS(=O)(=O)c2ccccc2Cl)n1 [r63] | NVS_NR_hPXR: 0

---

Target: PXR Human (NR1I2) (Homo sapiens)
Sequence (O75469 146-434 limits assumed): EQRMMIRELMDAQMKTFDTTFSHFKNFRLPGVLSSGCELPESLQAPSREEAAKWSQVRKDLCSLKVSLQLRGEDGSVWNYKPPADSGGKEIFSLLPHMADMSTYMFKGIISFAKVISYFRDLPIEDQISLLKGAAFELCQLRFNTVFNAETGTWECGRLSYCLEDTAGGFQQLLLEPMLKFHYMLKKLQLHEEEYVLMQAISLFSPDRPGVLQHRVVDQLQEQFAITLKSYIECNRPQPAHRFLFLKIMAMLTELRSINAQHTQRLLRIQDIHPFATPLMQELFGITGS
Assay: NCGC_PXR_Agonist_human: GAL4 BLAM Reporter gene assay: PXR Human
Assay type: cell-based
Settings: agonist mode
observed property: NCGC_PXR_Agonist_human
Please respond with just the number, no unit label.

Item: `N#CSCSc1nc2ccccc2s1` | NCGC_PXR_Agonist_human: 4.409

Item: `C#CC(C)(C)NC(=O)c1cc(Cl)cc(Cl)c1` | NCGC_PXR_Agonist_human: 4.619

Item: CCc1cccc(C)c1N(C(=O)CCl)C(C)COC (centres unmarked) | NCGC_PXR_Agonist_human: 6.287

Item: `C=C(C)[C@H]1Cc2c(ccc3c2O[C@@H]2COc4cc(OC)c(OC)cc4[C@@H]2C3=O)O1` | NCGC_PXR_Agonist_human: 4.77

Item: `CSc1nc(NC(C)C)nc(NC(C)C)n1` | NCGC_PXR_Agonist_human: 4.443

---

Target: AHR (aryl hydrocarbon receptor) (Homo sapiens)
Construct: endogenous in cells; host or cells: HepG2
Sequence (P35869 11-848): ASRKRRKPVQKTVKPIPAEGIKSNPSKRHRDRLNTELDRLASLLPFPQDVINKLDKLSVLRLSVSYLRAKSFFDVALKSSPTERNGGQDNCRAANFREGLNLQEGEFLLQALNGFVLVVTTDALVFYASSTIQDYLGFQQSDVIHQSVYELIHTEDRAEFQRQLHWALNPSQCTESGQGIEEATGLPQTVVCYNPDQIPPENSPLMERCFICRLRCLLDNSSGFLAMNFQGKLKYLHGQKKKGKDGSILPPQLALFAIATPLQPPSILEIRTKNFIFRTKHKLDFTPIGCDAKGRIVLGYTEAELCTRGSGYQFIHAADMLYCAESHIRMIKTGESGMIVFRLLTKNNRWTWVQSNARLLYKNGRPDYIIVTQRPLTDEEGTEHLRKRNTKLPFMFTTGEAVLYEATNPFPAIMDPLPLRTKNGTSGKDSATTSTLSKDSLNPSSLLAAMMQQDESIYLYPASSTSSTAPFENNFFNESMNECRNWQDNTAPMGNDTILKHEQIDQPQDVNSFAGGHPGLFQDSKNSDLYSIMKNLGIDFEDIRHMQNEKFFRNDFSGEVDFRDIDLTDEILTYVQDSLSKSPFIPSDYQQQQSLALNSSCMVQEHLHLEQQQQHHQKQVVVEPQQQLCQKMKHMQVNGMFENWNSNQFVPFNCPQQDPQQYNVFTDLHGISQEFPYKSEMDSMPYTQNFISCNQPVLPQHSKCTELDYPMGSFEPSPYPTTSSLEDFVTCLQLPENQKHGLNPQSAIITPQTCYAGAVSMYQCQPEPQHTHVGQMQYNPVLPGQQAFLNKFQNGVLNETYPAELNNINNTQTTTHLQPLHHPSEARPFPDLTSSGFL
Test: ATG_Ahr_CIS: Factorial reporter gene assay (multiplexed transcription reporter, HepG2)
Assay type: cell-based
Design: scale not given here
Details: HepG2; scale not given, looks like -log10 of molar active concentration; 0 = no activity
observed property: ATG_Ahr_CIS
Please respond with just the number, no unit label.

Item: Cc1c(COC(=O)C2C(/C=C(\Cl)C(F)(F)F)C2(C)C)cccc1-c1ccccc1 (centres unmarked) | ATG_Ahr_CIS: 0

Item: `N#Cc1cc(Br)c(O)c(Br)c1` | ATG_Ahr_CIS: 4.319

Item: `Nc1cnn(-c2ccccc2)c(=O)c1Cl` | ATG_Ahr_CIS: 4.444

Item: `CNC(=O)Oc1cccc2ccccc12` | ATG_Ahr_CIS: 4.456

Item: CCOC(=O)C(Cl)Cc1cc(-n2nc(C)n(C(F)F)c2=O)c(F)cc1Cl (centres unmarked) | ATG_Ahr_CIS: 0

Item: `CC(C)N1C(=O)c2ccccc2NS1(=O)=O` | ATG_Ahr_CIS: 0

Item: `COC(=O)c1ccccc1CS(=O)(=O)NC(=O)Nc1nc(OC)cc(OC)n1` | ATG_Ahr_CIS: 0

Item: `Cc1ccccc1CO[C@@H]1C[C@@]2(C(C)C)CC[C@]1(C)O2` | ATG_Ahr_CIS: 0

Item: CCC(C)n1c(=O)[nH]c(C)c(Br)c1=O (centres unmarked) | ATG_Ahr_CIS: 0

Item: COc1nc(C)nc(NC(=O)NS(=O)(=O)c2ccccc2Cl)n1 [r63] | ATG_Ahr_CIS: 0

Item: `OB(O)O` | ATG_Ahr_CIS: 0

---

Biological target: LXRa (NR1H3) (Homo sapiens)
Construct: expressed in transfected cells; host or cells: HepG2
Sequence (Q13133 1-447): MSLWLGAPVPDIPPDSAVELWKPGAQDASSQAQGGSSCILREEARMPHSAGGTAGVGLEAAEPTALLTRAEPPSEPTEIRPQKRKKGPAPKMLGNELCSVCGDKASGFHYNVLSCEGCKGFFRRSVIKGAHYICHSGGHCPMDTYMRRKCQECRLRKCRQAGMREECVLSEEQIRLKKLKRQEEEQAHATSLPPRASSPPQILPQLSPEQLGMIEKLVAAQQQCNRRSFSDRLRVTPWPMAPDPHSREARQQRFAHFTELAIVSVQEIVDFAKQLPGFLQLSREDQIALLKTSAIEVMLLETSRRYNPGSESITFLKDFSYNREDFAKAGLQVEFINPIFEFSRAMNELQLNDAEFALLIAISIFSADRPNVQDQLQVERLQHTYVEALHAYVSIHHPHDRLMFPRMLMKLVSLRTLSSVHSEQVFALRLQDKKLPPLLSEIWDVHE
Assay: ATG_LXRa_TRANS: Factorial reporter gene assay (HepG2)
Assay type: cell-based
Details: HepG2; scale not given, looks like -log10 of molar active concentration; 0 = no activity
Description: A multiple reporter transcription unit (MRTU) library consisting of 48 transcription factor binding sites was transfected into the HepG2 human liver hepatoma cell line. In addition to the cis-acting reporter genes (CIS), a modification of the approach was used to generate a trans-system (TRANS) with a mammalian one-hybrid assay consisting of an additional 25 MRTU library reporting the activity of nuclear receptor super-family members. […]
Hi there, I'd appreciate the recorded ATG_LXRa_TRANS for every entry that follows.
Please respond with just the number, no unit label.

Item: Cc1ccccc1CO[C@@H]1C[C@@]2(C(C)C)CC[C@]1(C)O2 [r64] | ATG_LXRa_TRANS: 4.377

Item: CCOC(=O)C(Cl)Cc1cc(-n2nc(C)n(C(F)F)c2=O)c(F)cc1Cl (stereo not drawn) [r54] | ATG_LXRa_TRANS: 0

Item: COc1cc(Cl)c(OC)cc1Cl [r57] | ATG_LXRa_TRANS: 0

Item: COC(=O)c1ccccc1CS(=O)(=O)NC(=O)Nc1nc(OC)cc(OC)n1 [r33] | ATG_LXRa_TRANS: 0

Item: CCCCOCN(C(=O)CCl)c1c(CC)cccc1CC [r46] | ATG_LXRa_TRANS: 0

Item: CC1=C(C(=O)Nc2ccccc2)SCCO1 [r53] | ATG_LXRa_TRANS: 0

---

Biological target: PXR (NR1I2) (Homo sapiens)
Assay: ATG_PXRE_CIS: Factorial reporter gene assay (HepG2)
Type: cell-based
Parameters: endogenous in cells; host or cells: HepG2
Conditions: HepG2; scale not given, looks like -log10 of molar active concentration; 0 = no activity
Hi there, I'd appreciate the recorded ATG_PXRE_CIS for every entry that follows.
Please respond with just the number, no unit label.

Item: COc1nc(C)nc(NC(=O)NS(=O)(=O)c2ccccc2Cl)n1 [r62] | ATG_PXRE_CIS: 4.495

Item: `COc1cc(Cl)c(OC)cc1Cl` | ATG_PXRE_CIS: 4.42

Item: `Cc1ccccc1CO[C@@H]1C[C@@]2(C(C)C)CC[C@]1(C)O2` | ATG_PXRE_CIS: 5.201

Item: `N#Cc1cc(Br)c(O)c(Br)c1` | ATG_PXRE_CIS: 4.523

Item: `CC1=C(C(=O)Nc2ccccc2)SCCO1` | ATG_PXRE_CIS: 4.328

Item: O=C1C2CC=CCC2C(=O)N1SC(Cl)(Cl)Cl (centres unmarked) | ATG_PXRE_CIS: 0

Item: `CC(C)(c1ccc(O)cc1)c1ccc(O)cc1` | ATG_PXRE_CIS: 4.886

Item: `CC(C)N1C(=O)N(c2ccccc2)CS/C1=N\C(C)(C)C` | ATG_PXRE_CIS: 5.456

Item: `CNC(=O)Oc1cccc2ccccc12` | ATG_PXRE_CIS: 4.42

Item: `Nc1cnn(-c2ccccc2)c(=O)c1Cl` | ATG_PXRE_CIS: 0

Item: `O=C(Nc1ccccc1-c1ccc(Cl)cc1)c1cccnc1Cl` | ATG_PXRE_CIS: 5

Item: CCOC(=O)C(Cl)Cc1cc(-n2nc(C)n(C(F)F)c2=O)c(F)cc1Cl (centres unmarked) | ATG_PXRE_CIS: 4.328

Item: `N#Cc1c(Cl)c(Cl)c(Cl)c(C#N)c1Cl` | ATG_PXRE_CIS: 6.796

Item: `CCCCOCN(C(=O)CCl)c1c(CC)cccc1CC` | ATG_PXRE_CIS: 5.721

Origin of measurements: paper PMC3038857
